- measured target: CDK2A (Homo sapiens, UniProt P24941)
- Construct: purchased in-house DSF kinase panel (SGC-style construct names; the trailing letter is the construct ID)
- assay procedure: DSF Tm panel
- Type: binding
- condition label: 10 μM compound
We begin with a simple list: items and their reported ΔTm at 10 µM.
Output spec: scalar in °C, unitless text.

O=C(NCc1ccc(Cl)cc1)Nc1ccc2cc1OCCOCCNc1ccn3ncc-2c3n1 5.6
O=C(NCc1cccc(Cl)c1)Nc1ccc2cc1OCCOCCNc1ccn3ncc-2c3n1 4.3
O=C(NCc1ccccc1Cl)Nc1ccc2cc1OCCOCCNc1ccn3ncc-2c3n1 2.9
CN1CCN(C(=O)Nc2ccc3cc2OCCOCCNc2ccn4ncc-3c4n2)CC1 1.4
COc1ccc(CNC(=O)Nc2ccc3cc2OCCOCCNc2ccn4ncc-3c4n2)cc1F 3.4

input: Recorded ΔTm at 10 µM of COc1ccccc1CNC(=O)Nc1ccc2cc1OCCOCCNc1ccn3ncc-2c3n1 , please.
output: 1.7

input: Recorded ΔTm at 10 µM of O=C(NCc1ccc(Cl)cc1Cl)Nc1ccc2cc1OCCOCCNc1ccn3ncc-2c3n1 , please.
output: 2.5
